tested on: RPMI-8226; test: NCI tumour cell line growth inhibition, 48 h
Activity calls are given as the source filed them. Rule as the data show it: active = GI50 up to about 1.1 µM and inactive = higher.
# output must be one of active, inactive

Example entries begin here.
Cn1c2ccccc2n2c(=O)c3cccnc3c(C#N)c12
inactive
Nc1ccccc1SC(C[N+](=O)[O-])c1ccc2c(c1)OCO2 (configuration not stated)
inactive
CN(/N=C(\C(=O)O)c1ccccc1)C1=NCCN1
inactive
N#Cc1[nH]c(=O)n(-c2ccc([N+](=O)[O-])cc2)c1N
inactive
COC(=O)C1C(O)CCC2CN3CCc4c([nH]c5cccc(OC)c45)C3CC21 (configuration not stated)
inactive
Cc1ncc([N+](=O)[O-])n1CCNC(=O)CCC(=O)NCCCn1ccnc1[N+](=O)[O-]
inactive
O=C1CNS(=O)(=O)N1
inactive
c1cc2[se][se]c3c4cccc5[se][se]c(c(c1)c23)c54
inactive

Input line: // return assay outcome for O=C(CCCN1CC=C(n2c(=O)[nH]c3ccccc32)CC1)c1cccs1
Output line: inactive

Input line: Then O=C1C=Cc2c(Cl)sc(Cl)c21 ?
Output line: active

###

test system: MCF7; test: NCI tumour cell line growth inhibition, 48 h
Activity calls are given as the source filed them. Cut-off read from the data, not from the text of the source: active = GI50 up to about 1.1 µM and inactive = higher.
// one of yes (1) = active, no (0) = inactive, no free text

Previously resolved entries follow.
CC(C)C(CC(=O)OCC(CO)OC(=O)CC(C(C)C)C(C)C)C(C)C (centres undefined)
no (0)
CN(C)Cc1cc(C(=O)/C=C/c2c(F)cccc2Cl)cc(CN(C)C)c1O
no (0)
N#Cc1c(-c2ccccc2)c(C#N)c(=O)n(NS(=O)(=O)c2ccccc2)c1O
no (0)
Cc1cc(O)c2c(c1)C[C@@H](O)C1=C2C(=O)c2c(O)ccc(OC3CC(O)C(OC4CC(OC5CCC(OC6CC(O)C(OC7CC(OC8CCC(O)C(C)O8)C(O)C(C)O7)C(C)O6)C(C)O5)C(O)C(C)O4)C(C)O3)c2C1=O (some centres undefined)
yes (1)
CCOC(=O)c1ccc(/N=C2\S/C(=C\C(=S)Nc3ccccc3)N(c3ccccc3)\C2=N/c2ccc(C(=O)OCC)cc2)cc1
no (0)

Input line: Write down the call the test reported for this compound. Item: CN(/N=C(\C(=O)O)c1ccccc1)C1=NCCN1
Output line: no (0)

Input line: Please do the same for CSc1ccc(C(=O)C(=O)c2ccc(SC)s2)s1 as well.
Output line: no (0)

Input line: Next record, please: Cc1ccc(/C=N/Nc2cc(C)c3ccccc3n2)s1
Output line: no (0)

Input line: Again, but for COc1ccc(C[n+]2cccc(O)c2)cc1
Output line: no (0)

###

system: SW-620; test: NCI tumour cell line growth inhibition, 48 h
Active and inactive are the calls of the source. Cut-off read from the data, not from the text of the source: active = GI50 up to about 1.1 µM and inactive = higher.
Result category, one only: 1.0 for active, 0.0 for inactive

Input line: Record request — test call for O=[N+]([O-])c1ccc(NN/N=N/c2ccc(-c3nc4ccccc4[nH]3)cc2)c([N+](=O)[O-])c1
Output line: 0.0

###

Some compounds, each annotated with its measured GI50.
system: 786-0; assay: NCI tumour cell line growth inhibition, 48 h
Calls of active or inactive are those of the source. No stated cut-off is given here; in the data, active = GI50 up to about 1.1 µM and inactive = higher.

CC(=O)O[C@@H]1[C@@H](C)[C@]2(CC(c3ccoc3)OC2O)C2CCC3O[C@]3(C)[C@]2(C)[C@@H]1OC(C)=O (some centres undefined)
19.2 µM (inactive)
COCC[N+](CCNC(=O)c1cccc2c(N)c3cccc(C)c3nc12)(CCOC)Cc1ccc([N+](=O)[O-])cc1
19.1 µM (inactive)
COC(=O)C1Cc2c(OC)ccc(OC)c2CC(C(=O)OC)C1=O (centres undefined)
> 100 µM (inactive)
COC(=O)C1C(O)CCC2CN3CCc4c([nH]c5cccc(OC)c45)C3CC21 (centres undefined)
> 100 µM (inactive)
CCOC(=O)C1Cc2c(cc3c4c(cccc24)N(C(C)=O)C3)N(C)C1 (centres undefined)
4.03 µM (inactive)

Input line: Need GI50 of CCOC(=O)Cc1ccc(Nc2nc3cc(F)c(F)cc3nc2C(=O)OCC)cc1 , thanks.
Output line: > 100 µM (inactive)

Input line: Cool, now CC1(CCCO)CCCCCC(C)(CCCO)C1=O (centres undefined)
Output line: > 100 µM (inactive)

Input line: Please give the result for N#Cc1c(-c2ccccc2)c(C#N)c(=S)n(C2OC(CO)C(O)C(O)C2O)c1N (centres undefined) too.
Output line: > 100 µM (inactive)

Input line: Then this compound: COc1cc(C2Oc3cc(-c4oc5cc(O)cc(O)c5c(=O)c4O)ccc3OC2CO)ccc1O (centres undefined) [DEHYDROSILYLBIN]
Output line: 8.55 µM (inactive)
